Recorded melting point for the following molecules

Some molecules with recorded melting point:
- CN(C)c1ccc(C(=O)c2ccc(O)cc2)cc1: 199 to 200 °C
- O=c1[nH]c2ccccc2c(=O)c2ccccc12: 245 to 248 °C
- CC1(C)CCC(C)(C)c2cc3cc(-c4cc(C(=O)O)cs4)ccc3cc21: 223 to 225 °C
- Cc1c(NC(=O)C(CSC(=O)C(C)(C)C)Cc2ccccc2)cccc1C(=O)O (stereo unspecified): 117 to 120 °C
- Cc1ccc(C(=O)NCCC(=O)OCc2ccccc2)c(NC(=O)C(CCCNC(=N)N[N+](=O)[O-])NC(=O)OCc2ccccc2)c1 (stereo unspecified): 154 to 156 °C

Param item = `CCOC(=O)C(=O)Nc1ccc(OC)cc1[N+](=O)[O-]` ; retrieve measured melting point.
151 °C

Bench note: what melting point did CSC(Oc1ccc2ncc(I)cc2c1)C(=O)NC(C)(C)C (stereo unspecified) show?
165 to 166 °C

I have this molecule here, `COc1nc(C)cnc1NS(=O)(=O)c1cccnc1-c1ccc(N(C)C)cc1` , and I need its recorded melting point.
183 to 184 °C

# query: melting point of entry CC(=O)OC1CSC(Sc2ccccc2C#N)C(OC(C)=O)C1OC(C)=O (stereo unspecified)
160 °C

---

recorded_endpoint: melting point

Reference set, count: 3
- Cc1c(F)c(N2CCNCC2)c(F)c2c1c(=O)c(C(=O)O)cn2-c1ccc(F)cc1F: 240 to 242 °C
- CC(=O)NC[C@H]1CN(c2cc(F)c(N3CCC(n4nnnc4-c4ccncc4)CC3)c(F)c2)C(=O)O1: 202 to 204 °C
- CCC(=O)Nc1cccc(O)c1: 181 to 182 °C

// melting point lookup, key: `CC(C)(C)c1ccc(-c2[nH]c3cccc4c3c2CCNC4=O)cc1`
243 to 244 °C

# input compound: `Cn1c(=O)n(C(=O)OC(C)(C)C)c2ccc(Br)cc21` ; wanted: its melting point
98 to 99 °C

Give the measured melting point of `Cc1cc2oc(-c3ccccn3)nc2cc1N=C=S` .
192 to 194 °C

Looking for the measured melting point of `CC(C)CCNC(Nc1cc(C(F)(F)F)cc(C(F)(F)F)c1)=C(C#N)C(=O)OC(C)(C)C` , can you help?
128 to 129 °C

Which melting point reading was recorded for the compound `O=C(Cc1cccnc1)N1CCC(=C2c3ccc(Cl)cc3CCc3c(Cl)ccnc32)CC1` ?
59.8 to 63.5 °C

Any idea what melting point was measured for O=C1NC(=O)C2CCCC12 (stereo not given) ?
89 °C

Name the reported melting point value associated with the compound `COc1c(OC)c(OC(C)=O)c2cc(Cl)ccc2c1O`
106 to 107 °C

Report melting point for `CCOC(=O)c1cnc2ccc(OCC)nc2c1Nc1ccc(Oc2ccccn2)cc1` please.
148 to 151 °C

// lookup melting point for `COc1ccc2cnc(Nc3ccc(N4CCCCC4)c(F)c3)nc2c1C1CCCC1`
200 to 201 °C

Query: melting point; subject: `COc1cc2c(cc1OC)N(c1ccc([N+](=O)[O-])cc1)CC2`
176 to 179 °C

For `NS(=O)(=O)c1cccc(C2OCCO2)c1` , what is its reported melting point?
145 to 147 °C

What does the record list as melting point for `CCCCCCCCCCc1ccc2cc(/C=C/c3cc4ccc(CCCCCCCCCC)cc4cc3SC)c(SC)cc2c1` ?
117 to 118 °C

Would you kindly share the measured melting point for `COc1cccc(OC)c1C(=O)Nc1nc[nH]n1` ?
191 to 193 °C

Given the entry `Cc1ccc(-c2cccc(/C=C/C(=O)Nc3ccc(Cc4ccccn4)cc3)c2)cc1` , report its measured melting point.
169 to 171 °C

# get_value(readout='melting point', item= `O=C(Cc1cc(F)cc(F)c1)N[C@@H](Cc1cc2ccccc2[nH]1)C(=O)N[C@@H]1C(=O)Nc2ccccc2S[C@@H]1c1ccccc1` )
85 to 90 °C

Please give the measured melting point for this compound: `CC(=O)Nc1cc(N(C)C)ccc1C(=O)c1ccccc1C(=O)O`
174 to 181 °C

Look up melting point for this compound: `N#Cc1ccc(Oc2ccccc2)cc1C#N`
98 to 100 °C

---

Listed here are molecules together with their documented melting point.

- CNCC1Cc2cc(OC)cc(-c3ccccc3F)c2O1 (stereo not given): 110 to 112 °C
- Oc1cccc2c1OCO2: 62 to 63 °C
- CC(=O)Nc1nc(C)c(S(=O)(=O)N(C)CCO)s1: 189 °C
- Cc1cccc(C(=O)CCl)c1O: 65 to 66 °C
- Cc1cc(C2(C(F)(F)F)CC(c3ccc(Cl)cc3)=NN2C)ccc1NC(=O)c1cccc(I)c1C(=O)NC(C)C (stereo not given): 90 to 92 °C
- N#CSc1cc(Cl)c(Cl)c2sc(NC(=O)Nc3ccc(Br)cc3)nc12: 243 to 245 °C
- N#CC1=C(n2cccc2)Oc2c(ccc3cc(C(=O)O)c(O)cc23)C1c1cccc([N+](=O)[O-])c1 (stereo not given): > 230 °C
- CC(C)[C@H](C[C@H](O)[C@H](C)NC(=O)OC(C)(C)C)C(=O)NN: 55 to 62 °C

So what's the measured melting point for this one? `O=C(O)c1cccc(CN2CCC(c3cn(CC4CC4)c4ccccc34)CC2)c1`
207 °C

Which melting point is reported for this molecule? `CCNC1=NS(=O)(=O)c2sc(Cl)cc2N1`
271 to 274 °C

If you can, please state the reported melting point value of O=C(O)C1CCOc2c(Cl)cc(-c3ccccc3)cc21 (stereo not given) .
187 to 188 °C

Need melting point of `CCOC(=O)c1cnc2c(c1O)CCCCCC2` , thanks.
219 to 222 °C

So what's the measured melting point for this one? `CC1(C)CN(c2ncc(C(=O)O)c(N)n2)C(=O)N1`
290 to 291 °C

What value of melting point has been recorded for this entry: `CCOC(=O)Cc1ccc(OCc2ccc3oc([N+](=O)[O-])c(-c4ccccc4)c3c2)cc1`
74 to 75 °C

// query melting point value for entry COc1ccc(C2=NN(CCCCCCNC(=O)c3ccccc3C(N)=O)C(=O)[C@H]3CC=CC[C@@H]23)cc1OC (relative stereo)
104 to 105 °C

GET /values?readout=melting point&item= `Cn1c(C(F)(F)F)cc(=O)n(-c2ccc(O)cc2F)c1=O`
185 to 190 °C

---

recorded_endpoint: melting point

- O=Cc1c2ccccc2c(OCCOCc2ccccc2)c2ccccc12: 68 to 69 °C

Fill in the blank: the reported melting point of `CN(C(=O)CCCOc1ccc2[nH]c(=O)oc(=O)c2c1)C1CCCCC1` is ____.
222 to 224 °C

Endpoint output: melting point of `CC(=O)c1ccc2c(c1)C(Cc1ccccc1)=CC(=CCl)CO2` . Value?
89 to 94 °C

Item under review: `C=Cc1ccc(Nc2nc(Cl)nc(Cl)n2)cc1` . Reported melting point?
152 to 154 °C

Given `CC(C)[C@@H]1CC[C@@H](C)C[C@H]1OCC(=O)N(C)CCO` , state its recorded melting point.
65 to 66 °C

---

recorded_endpoint: melting point

Examples with answers:
* CC(=O)Nc1c(C(=O)c2cccc(OCc3ccccc3)c2)[nH]c2cc(Cl)ccc12 | 159 to 161 °C
* COC(=O)c1cnc(Cl)c(OC)c1 | 83 to 85 °C
* Cc1cc(C)c(C(=O)Nc2ccc(-n3nc(C(F)(F)F)cc3C(F)(F)F)cc2)c(C)c1 | 203 to 205 °C
* CCn1c([N+](=O)[O-])cnc1C=CN(C)C | 124 to 125 °C
* CCCCCCCCCCCCCCC[C@@H](O)[C@@H](NCc1ccccc1)C(=O)O | 132 °C

What value of melting point has been reported for the following molecule? `CC(=O)c1cc2c(s1)Oc1ccccc1N=C2N1CCN(C)CC1`
143 to 144 °C

Entry under review: `COc1cc(OC)cc(OC(=O)NC(=O)C(c2ccccc2)c2ccccc2)c1` . Reported melting point?
150 to 152 °C

What value of melting point has been recorded for this entry: CC(=O)SCC(C(=O)NC(CC(=O)O)Cc1ccccc1)C(F)(F)F (stereo not given)
171 to 172 °C

Returns the measured melting point for the input molecule. Input: `CCOc1ccc(C(C)=NOCCO)cc1`
51 to 54 °C

Field request: melting point | item: O=C1OCCC1C1CCc2c1[nH]c1ccccc21 (stereo not given)
155 to 157 °C

---

Overview of reported melting point across a group of molecules:

The cases that follow already have their melting point on record.
* Nc1[nH]c(=O)c(C(=O)NCC2CCN(CC3CCCCC3)CC2)cc1Cl | 142 to 146 °C
* Cn1c(=O)c(-c2c(Cl)cccc2Cl)cc2cnc(N)cc21 | 239 to 240 °C
* COCCn1nc2c3c(c(NCCNCCO)ccc31)C(=O)c1c(O)ccc(O)c1-2 | 174 to 178 °C
* COC1CC(NC(=O)C(F)(F)F)C(C)(O)C(C)O1 (stereo unspecified) | 133 to 134 °C
* C=CCc1ccc2oc(CC)c(C)c2c1O | 38 to 40 °C

Switching to the query record.
Which value of melting point has been reported for COC(=O)CCC(C)C1CC=C2C3=C(CCC21C)C1(C)CCC(O)C(C)(C)C1CC3 (stereo unspecified) in the records?
156 to 157 °C
